# assayed system: T1, IL-18Rα/β heterodimer (Fc fused human IL-18Rα mixed and pre-incubated with Fc fused human IL-18Rβ) (human, UniProt Q13478 19-329; O95256 20-356, limits assumed)
# T1 construct: 6 µg/mL of each receptor mixed and pre-incubated 30 min before capture on anti-human IgG; also called alpha/beta heterodimer IL-18 receptor; not shown: Fc part
# T1 sequence (looked up) 1: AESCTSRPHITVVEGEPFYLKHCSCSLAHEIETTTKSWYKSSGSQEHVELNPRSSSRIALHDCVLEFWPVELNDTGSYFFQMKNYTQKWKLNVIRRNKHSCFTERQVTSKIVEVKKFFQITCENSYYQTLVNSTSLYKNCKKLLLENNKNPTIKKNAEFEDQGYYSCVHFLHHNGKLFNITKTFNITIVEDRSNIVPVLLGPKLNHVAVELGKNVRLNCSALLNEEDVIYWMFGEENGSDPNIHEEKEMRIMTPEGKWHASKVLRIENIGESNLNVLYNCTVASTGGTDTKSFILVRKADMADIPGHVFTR
# T1 sequence (looked up) 2: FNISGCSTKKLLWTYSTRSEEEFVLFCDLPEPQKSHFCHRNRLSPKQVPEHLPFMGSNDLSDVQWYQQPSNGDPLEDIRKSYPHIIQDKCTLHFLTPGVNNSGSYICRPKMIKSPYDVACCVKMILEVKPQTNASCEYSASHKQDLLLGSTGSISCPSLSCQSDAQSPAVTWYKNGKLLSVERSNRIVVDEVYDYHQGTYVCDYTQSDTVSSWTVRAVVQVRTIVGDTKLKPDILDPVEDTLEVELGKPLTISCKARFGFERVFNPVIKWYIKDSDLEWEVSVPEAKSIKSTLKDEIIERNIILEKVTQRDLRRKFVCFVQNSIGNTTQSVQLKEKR
# test protocol: SPR, Fc-IL-18Rα/Fc-IL-18Rβ mix captured, heterogeneous ligand model
# Experimental: The interaction of the wild type and of modified IL-18 polypeptides with human IL-18 receptor subunits were measured with Surface Plasmon Resonance (SPR) technology. […] The kinetic binding of the IL-18 analytes were measured with a Biacore 8K instrument in two-fold serial dilutions starting at 1 μM down to 0.98 nM. […]
Strictly below 200 nM in Kd: Fulfilled. Otherwise: Not fulfilled.

Observe how each entry below is paired with its result.
- binder: "Modified IL-18 polypeptide of SEQ ID NO: 17 (E06K, K53A, S55A, C38S, C68S, C76S, C127S, K70C) (ligand) YFGKLKSKLSVIRNLNDQVLFIDQGNRPLFEDMTDSDSRDNAPRTIFIISMYADAQPRGMAVTISVKSECISTLSSENKIISFKEMNPPDNIKDTKSDIIFFQRSVPGHDNKMQFESSSYEGYFLASEKERDLFKLILKKEDELGDRSIMFTVQNED"
  group: "Not fulfilled"
- binder: "Modified IL-18 polypeptide of SEQ ID NO: 71 (E6K, C38S, K53A) (ligand) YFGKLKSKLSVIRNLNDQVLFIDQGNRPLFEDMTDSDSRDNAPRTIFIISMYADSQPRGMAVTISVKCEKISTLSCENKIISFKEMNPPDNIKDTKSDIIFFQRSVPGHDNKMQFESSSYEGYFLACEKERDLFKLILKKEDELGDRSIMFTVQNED"
  group: "Fulfilled"
- binder: "Modified IL-18 polypeptide of SEQ ID NO: 18 (E06K, K53A, T63A) (ligand) YFGKLKSKLSVIRNLNDQVLFIDQGNRPLFEDMTDSDCRDNAPRTIFIISMYADSQPRGMAVAISVKCEKISTLSCENKIISFKEMNPPDNIKDTKSDIIFFQRSVPGHDNKMQFESSSYEGYFLACEKERDLFKLILKKEDELGDRSIMFTVQNED"
  group: "Fulfilled"
- binder: "Modified IL-18 polypeptide of SEQ ID NO: 10 (E06K, K53A, S55A, T63A) (ligand) YFGKLKSKLSVIRNLNDQVLFIDQGNRPLFEDMTDSDCRDNAPRTIFIISMYADAQPRGMAVAISVKCEKISTLSCENKIISFKEMNPPDNIKDTKSDIIFFQRSVPGHDNKMQFESSSYEGYFLACEKERDLFKLILKKEDELGDRSIMFTVQNED"
  group: "Fulfilled"

I wonder whether Modified IL-18 polypeptide of SEQ ID NO: 2 (E06K, K53A, S55A) (ligand) YFGKLKSKLSVIRNLNDQVLFIDQGNRPLFEDMTDSDCRDNAPRTIFIISMYADAQPRGMAVTISVKCEKISTLSCENKIISFKEMNPPDNIKDTKSDIIFFQRSVPGHDNKMQFESSSYEGYFLACEKERDLFKLILKKEDELGDRSIMFTVQNED has Kd below 200 nM. Can you tell? Not fulfilled

Just wondering, is Kd of Modified IL-18 polypeptide of SEQ ID NO: 15 (C38S, C68S, C76S, C127S) (ligand) YFGKLESKLSVIRNLNDQVLFIDQGNRPLFEDMTDSDSRDNAPRTIFIISMYKDSQPRGMAVTISVKSEKISTLSSENKIISFKEMNPPDNIKDTKSDIIFFQRSVPGHDNKMQFESSSYEGYFLASEKERDLFKLILKKEDELGDRSIMFTVQNED below 200 nM? Not fulfilled

I wonder whether Modified IL-18 polypeptide of SEQ ID NO: 13 (E06K, K53A, S55A, D54A) (ligand) YFGKLKSKLSVIRNLNDQVLFIDQGNRPLFEDMTDSDCRDNAPRTIFIISMYAAAQPRGMAVTISVKCEKISTLSCENKIISFKEMNPPDNIKDTKSDIIFFQRSVPGHDNKMQFESSSYEGYFLACEKERDLFKLILKKEDELGDRSIMFTVQNED has Kd below 200 nM. Can you tell? Not fulfilled

Please check: Kd for Modified IL-18 polypeptide of SEQ ID NO: 3 (Y01G, F02A, E06K, M51G, K53A, D54A, S55A, T63A) (ligand) GAGKLKSKLSVIRNLNDQVLFIDQGNRPLFEDMTDSDCRDNAPRTIFIISGYAAAQPRGMAVAISVKCEKISTLSCENKIISFKEMNPPDNIKDTKSDIIFFQRSVPGHDNKMQFESSSYEGYFLACEKERDLFKLILKKEDELGDRSIMFTVQNED , strictly under 200 nM or not? Not fulfilled

Strictly below 200 nM in Kd? Modified IL-18 polypeptide of SEQ ID NO: 22 (E06K, K53A, C38S, C68S, C76S, C127S, K70C) (ligand) YFGKLKSKLSVIRNLNDQVLFIDQGNRPLFEDMTDSDSRDNAPRTIFIISMYADSQPRGMAVTISVKSECISTLSSENKIISFKEMNPPDNIKDTKSDIIFFQRSVPGHDNKMQFESSSYEGYFLASEKERDLFKLILKKEDELGDRSIMFTVQNED Fulfilled

Record Modified IL-18 polypeptide of SEQ ID NO: 71 with a 30 kDa PEG attached at residue C68 (E6K, C38S, K53A, C68-30kDPEG) (ligand, 30 kDa PEG on Cys 68 (30 kDa DBCO-polyethylene glycol clicked to a bromoacetamido-PEG5-azide linker on the cysteine), also called 71 + PEG) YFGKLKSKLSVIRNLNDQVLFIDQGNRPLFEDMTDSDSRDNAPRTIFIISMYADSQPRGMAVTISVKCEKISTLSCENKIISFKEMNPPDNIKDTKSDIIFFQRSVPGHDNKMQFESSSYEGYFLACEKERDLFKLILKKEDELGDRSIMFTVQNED : is its Kd strictly below 200 nM? Fulfilled
